Test system: aqueous buffer solubility, pH 5.0/6.2/7.4
Test: compound solubility, pH 5.0, 6.2, 7.4 – biophysical, set 2, ADME assay (AID 624323)
Details: at 100 µM
The source made the active and inactive calls. The rule behind the calls is not given here.
Could you please pick one outcome from this set? true (1) for active, false (0) for inactive

Input: # lookup: test call for Cc1ccnc(NC(=O)CCCOc2cc(=O)n(C)c3ccccc23)c1
Output: false (0)

Input: Proceed to N#Cc1ccccc1CSc1nc2ncc(Br)cc2[nH]1
Output: false (0)

Input: Also, COc1ccc(N(C(=O)CCl)C(C(=O)NCCc2ccccc2)c2cccs2)cc1Cl (stereo unspecified) please.
Output: false (0)

Input: Can you check Cc1ccc(NC(=O)CCC(=O)N/N=C/c2ccc([N+](=O)[O-])o2)cc1C next?
Output: false (0)

Input: Can you handle Brc1cc2c(cc1C1Nc3ccccc3C3C=CCC31)OCO2 (stereo unspecified) next?
Output: false (0)

Input: Okay, and Cc1ccc(C)c(OCCn2cc(C(=O)O)c3ccccc32)c1 ?
Output: true (1)

---

System: aqueous buffer solubility, pH 5.0/6.2/7.4
Assay: compound solubility, pH 5.0, 6.2, 7.4 – biophysical, set 2, ADME assay (AID 624323)
Details: measured here: solubility at pH 5.0; at 100 µM; stronger effect = higher value
Assign satisfied to entries whose solubility meets or exceeds 8 µg/mL; assign not satisfied to the rest.

Input: I'd appreciate it if you could say whether O=S1(=O)Nc2c(ccc3cccnc23)-c2ccccc21 has solubility at least equal to 8 µg/mL.
Output: satisfied

Input: Query O=C1NCCCc2c1oc1ccc(O)cc21 next
Output: satisfied

Input: Then CC(C)(C)OC(=O)NCCc1nnc(S(=O)(=O)Cc2ccc(Cl)cc2Cl)o1 ?
Output: satisfied

Input: Again, but for Cc1cccc(-n2cnc3cc(C(=O)N4CCCCC4)ccc32)c1
Output: satisfied

Input: Okay, and CCCc1nc2c(=O)n(C)c(=O)nc-2n(C)n1 ?
Output: satisfied

Input: Next compound up: COc1nc(-c2ccccc2)nnc1-c1ccccc1
Output: not satisfied

Input: // query: CCCn1ncc(CN2CCCC(C(=O)c3cccc(OC(C)C)c3)C2)c1C (stereo not given)
Output: satisfied

Input: Subsequent entry: CCCOc1ccc(-c2nc(OC)c3ccccc3n2)cc1
Output: not satisfied

Input: What do we get for COc1ccc(Sc2ccc(NC(=O)c3ccccc3Cl)cc2C#N)cc1 ?
Output: not satisfied

Input: Quick one: O=C(O)c1ccccc1OCc1ccccc1Br
Output: satisfied

Input: Next up: COc1ccc(CNCc2cccc3ccccc23)cc1
Output: satisfied

Input: Note, next up: CN1CSC(=S)N(C)C1
Output: satisfied

Input: Try this compound next: Cc1ccc(S(=O)(=O)C(c2ccccc2)c2c(C)noc2C)cc1 (stereo not given)
Output: satisfied

Input: Another compound to look at: COc1ccc(OC)c(S(=O)(=O)Nc2cnc3ccccc3c2)c1
Output: satisfied

Input: Continue with O=c1[nH]c2c(s1)C(c1cccnc1)C1C3CCC(C3)C1S2 (stereo not given)
Output: satisfied

Input: How about this compound: Cc1ccc(C)c(NS(=O)(=O)c2cc(C(=O)Nc3ccccc3-c3ccccc3)ccc2Cl)c1
Output: not satisfied

Input: Continue with Cc1cc(C(=O)CN2C(=O)CCC2=O)c(C)n1Cc1ccccc1
Output: satisfied

Input: Entry CCc1nnc(NC(=O)c2ccc(NS(=O)(=O)c3ccccc3)cc2)s1 please
Output: not satisfied

Input: # repeat for O=C(CSc1cccc2cccnc12)N1CCCC1
Output: satisfied

Input: Now the compound NC(=O)C1CCN(c2nc(-c3ccc(Br)cc3)cs2)CC1
Output: not satisfied

Input: And the next one, Cc1ccc(-n2c(N)c(C#N)c(-c3ccccc3)c(C#N)c2=O)cc1 ?
Output: not satisfied

Input: Try O=S(=O)(NC1CCCCC1N1CCOCC1)c1ccc(Cl)cc1 (stereo not given) next.
Output: satisfied

Input: What would you report for O=C(O)CCC(NS(=O)(=O)c1ccc(-c2ccccc2)cc1)C(=O)O (stereo not given) ?
Output: satisfied

Input: Let us now turn to COc1ccc(N(C(=O)CCl)C(C(=O)NCCc2ccccc2)c2cccs2)cc1Cl (stereo not given)
Output: not satisfied

Input: Entry to check: O=C(COC(=O)C12CC3CC(CC(C3)C1)C2)NCc1ccco1
Output: not satisfied

Input: Another compound to check: O=C(c1ccccn1)N(Cc1cccs1)C1(C(=O)NC2CCCCC2)CCCCC1
Output: not satisfied

Input: Can you handle C/C=C/Cn1c(SCCCc2ccccc2)nc2c1c(=O)[nH]c(=O)n2C next?
Output: not satisfied

Input: Let us now turn to COC(=O)c1ccccc1NC(=O)c1ccc(F)cc1
Output: not satisfied

Input: Then this compound: Cc1ccnc(NC(=O)CCCOc2cc(=O)n(C)c3ccccc23)c1
Output: satisfied

---

Tested on: aqueous buffer solubility, pH 5.0/6.2/7.4
Assay: compound solubility, pH 5.0, 6.2, 7.4 – biophysical, set 2, ADME assay (AID 624323)
Conditions: measured here: solubility at pH 5.0; at 100 µM; stronger effect = higher value
OBSERVATION TYPE: solubility (µg/mL)
Use µg/mL as the unit, but write only the number.

Input: Name the recorded solubility for Cc1ccc(C)c(OCCn2cc(C(=O)O)c3ccccc32)c1 .
Output: 0.19

Input: Same for COc1cccc(-c2nc(-c3ccc(NC(=O)Cc4ccccc4OC)cc3)no2)c1
Output: 0.09

Input: Another compound to check: CCCc1cc(C(=O)N(C2CCCCC2)C2CCCCC2)no1
Output: 2.1

Input: // query: N#Cc1ccccc1CSc1nc2ncc(Br)cc2[nH]1
Output: 0.42

Input: Let us now turn to CC(C)C(=O)NC(c1ccco1)c1ccc2cccnc2c1O (stereo unspecified)
Output: 2.8

Input: Now give it for CCc1oc2ccccc2c1C(=O)c1cc(Br)c(O)c(Br)c1 too.
Output: 0.18

Input: Try this compound next: CCOC(=O)C(C)Oc1cccc2c(=O)n(CC(=O)Nc3ccc4c(c3)OCCO4)ccc12 (stereo unspecified)
Output: 0.27

Input: # repeat for c1ccc2c(Nc3nnc(-c4ccncc4)s3)cccc2c1
Output: 3.3

---

System: aqueous buffer solubility, pH 5.0/6.2/7.4
Test: compound solubility, pH 5.0, 6.2, 7.4 – biophysical, set 2, ADME assay (AID 624323)
Settings: measured here: solubility at pH 6.2; at 100 µM; stronger effect = higher value
OBSERVATION TYPE: log10 of solubility (log10 of the value in µg/mL)
Please note: log10 values; quantity solubility; unit µg/mL.

Input: So what does the record say about log10 of solubility for Cc1ccc(C)c(OCCn2cc(C(=O)O)c3ccccc32)c1 ?
Output: -0.47

Input: Same lookup for CCCc1cc(C(=O)N(C2CCCCC2)C2CCCCC2)no1 , please.
Output: 0.30

Input: Moving on to the next compound: c1ccc(-c2nnc(N3CCOCC3)nc2-c2ccccc2)cc1
Output: 0.26

Input: Same for O=C(CCNS(=O)(=O)c1cccc2nsnc12)N1CCN(c2ccccn2)CC1
Output: 1.55

Input: Would you kindly repeat that for CC(=O)c1ccc(N2CCN(S(=O)(=O)c3ccc4c(c3)CC(=O)N4)CC2)cc1 ?
Output: 0.57

Input: And then CC(C)C(=O)NC(c1ccco1)c1ccc2cccnc2c1O (stereo not drawn) , what is it?
Output: 0.43

Input: Same for c1ccc(CC2CCN(c3ncnc4sccc34)CC2)cc1
Output: -2.00

Input: Do the same for Cc1cc(C)n(-c2nc(NCCCO)c3c4c(sc3n2)CCCC4)n1 please
Output: 1.31

Input: Next compound: CCc1oc2ccccc2c1C(=O)c1cc(Br)c(O)c(Br)c1
Output: 1.42

Input: Further, for Cc1cc2c(s1)c1cnn(Cc3ccccc3F)c(=O)c1n2C ?
Output: -0.72

Input: And Cc1ccc(S(=O)(=O)C(c2ccccc2)c2c(C)noc2C)cc1 (stereo not drawn) ?
Output: 1.23

Input: Now the same for COc1ccccc1N(/N=C1\Sc2ccccc2C1=O)C(C)=O
Output: 0.43

Input: Can you check Cc1nc(SCc2nc3ccccc3[nH]2)c2oc3ccccc3c2n1 next?
Output: -0.66

Input: Same question, CC(C)(C)OC(=O)NCCc1nnc(S(=O)(=O)Cc2ccc(Cl)cc2Cl)o1 this time
Output: 0.68

Input: Ok, now Cc1ccc(S(=O)(=O)NCc2ccc(C(=O)NCCN(Cc3ccccc3)C(C)C)cc2)cc1
Output: 1.54

Input: Same thing, different compound: c1ccc2c(Nc3nnc(-c4ccncc4)s3)cccc2c1
Output: 0.54

---

System: aqueous buffer solubility, pH 5.0/6.2/7.4
Test: compound solubility, pH 5.0, 6.2, 7.4 – biophysical, set 2, ADME assay (AID 624323)
Conditions: measured here: solubility at pH 5.0; at 100 µM; stronger effect = higher value
Met means recorded solubility is 0.2 µg/mL or above; Not met means it is below 0.2 µg/mL.

Input: Decide: is the reported value of solubility for Cc1nc(SCc2nc3ccccc3[nH]2)c2oc3ccccc3c2n1 equal to or greater than 0.2 µg/mL?
Output: Met

Input: And then O=C(CCNS(=O)(=O)c1cccc2nsnc12)N1CCN(c2ccccn2)CC1 , what is it?
Output: Met

Input: Entry COc1ccc(S(=O)(=O)N2CCN(S(=O)(=O)c3ccc4c(c3)OCCO4)CC2)cc1 please
Output: Not met

Input: Proceed to Cc1cc2c(s1)c1cnn(Cc3ccccc3F)c(=O)c1n2C
Output: Not met

Input: Again, but for Brc1cc2c(cc1C1Nc3ccccc3C3C=CCC31)OCO2 (stereo unspecified)
Output: Not met

Input: What about C=CCn1c(SCC(=O)c2ccc(O)c(O)c2)nnc1-c1ccccc1OC ?
Output: Met
